Biological target: MAP3K11 (human) (UniProt Q16584)
Sequence (Q16584 whole entry, looked up): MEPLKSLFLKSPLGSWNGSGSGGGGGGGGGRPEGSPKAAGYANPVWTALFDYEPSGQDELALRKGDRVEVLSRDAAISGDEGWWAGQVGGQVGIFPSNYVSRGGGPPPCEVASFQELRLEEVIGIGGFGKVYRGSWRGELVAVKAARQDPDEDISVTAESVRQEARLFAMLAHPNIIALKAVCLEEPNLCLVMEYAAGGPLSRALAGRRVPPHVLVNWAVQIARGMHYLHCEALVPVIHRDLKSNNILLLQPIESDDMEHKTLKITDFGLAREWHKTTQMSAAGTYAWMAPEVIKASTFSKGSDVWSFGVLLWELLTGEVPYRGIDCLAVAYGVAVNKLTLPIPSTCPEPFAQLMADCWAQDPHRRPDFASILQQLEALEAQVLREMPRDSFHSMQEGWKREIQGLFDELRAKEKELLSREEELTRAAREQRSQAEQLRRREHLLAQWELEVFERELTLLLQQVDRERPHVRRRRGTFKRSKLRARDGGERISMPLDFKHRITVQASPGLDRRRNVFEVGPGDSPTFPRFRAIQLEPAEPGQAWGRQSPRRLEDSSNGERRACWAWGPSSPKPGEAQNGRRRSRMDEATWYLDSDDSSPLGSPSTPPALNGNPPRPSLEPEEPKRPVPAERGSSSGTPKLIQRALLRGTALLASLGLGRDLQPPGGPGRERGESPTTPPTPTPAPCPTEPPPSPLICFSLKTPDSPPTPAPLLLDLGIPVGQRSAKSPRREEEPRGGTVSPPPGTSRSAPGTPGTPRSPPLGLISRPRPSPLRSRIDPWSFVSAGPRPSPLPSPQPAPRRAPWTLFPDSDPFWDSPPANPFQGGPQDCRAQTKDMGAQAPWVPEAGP
Experiment: KINOMEscan competition binding
Details: compound 10.0 µM
Listing: kinase still bound, per cent of control of selected molecules
# do not omit the unit; it follows the number

molecule=O=C(NC1CC1)c1cccc(-c2ccc3c(NC(=O)C4CC4)n[nH]c3c2)c1 result=100%
molecule=C=CC(=O)Nc1cc(NC(=O)c2ccc(C)c(NC(=O)c3ccno3)c2)cc(C(F)(F)F)c1 result=100%
molecule=O=C1Nc2ccc(I)cc2/C1=C/c1cc(Br)c(O)c(Br)c1 result=38%

What value of kinase still bound, per cent of control has been reported for the following molecule? "N#Cc1c(NC(=O)c2cccc3ccccc23)sc2c1CCCC2"
98%

What value of kinase still bound, per cent of control has been reported for the following molecule? "COc1cc(C(=O)NC2CCN(C)CC2)ccc1Nc1ncc2c(n1)N(C1CCCC1)CCC(=O)N2C(C)C"
100%

What value of kinase still bound, per cent of control has been reported for the following molecule? COc1cc(C(=O)NC2CCN(C)CC2)ccc1Nc1ncc2c(n1)N(C1CCCC1)C(C)CC(=O)N2C (centres undefined)
100%

What value of kinase still bound, per cent of control has been reported for the following molecule? "COc1cc(N2CCN(C)CC2)ccc1Nc1nc(N)c(C(=O)c2c(Cl)cccc2Cl)s1"
96%

What value of kinase still bound, per cent of control has been reported for the following molecule? "C[C@@H](Oc1cc(-n2cnc3ccc(CN4CCN(C)CC4)cc32)sc1C(N)=O)c1ccccc1C(F)(F)F"
75%

What value of kinase still bound, per cent of control has been reported for the following molecule? "C=CC(=O)Nc1cccc(Oc2nc(Nc3ccc(N4CCN(C)CC4)cc3OC)ncc2Cl)c1"
100%

* * *

Biological target: CSNK1G2 (human) (UniProt P78368)
Sequence (P78368 whole entry, looked up): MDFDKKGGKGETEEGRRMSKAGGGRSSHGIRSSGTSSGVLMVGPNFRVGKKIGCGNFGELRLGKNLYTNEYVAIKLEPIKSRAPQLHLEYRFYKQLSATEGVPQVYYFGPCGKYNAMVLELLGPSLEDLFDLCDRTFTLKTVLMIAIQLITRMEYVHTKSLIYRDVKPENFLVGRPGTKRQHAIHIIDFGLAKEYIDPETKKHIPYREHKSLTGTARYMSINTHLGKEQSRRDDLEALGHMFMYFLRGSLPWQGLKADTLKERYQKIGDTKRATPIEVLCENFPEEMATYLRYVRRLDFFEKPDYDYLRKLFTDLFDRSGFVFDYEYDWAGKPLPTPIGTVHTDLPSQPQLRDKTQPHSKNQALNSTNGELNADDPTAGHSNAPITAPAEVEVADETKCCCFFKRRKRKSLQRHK
Assay: KINOMEscan competition binding
Conditions: compound 10.0 µM
recordedEndpoint: kinase still bound, per cent of control (%)
Please give a number only; it is taken to be in %.

givensmiles=C=CC(=O)Nc1cc(NC(=O)c2ccc(C)c(NC(=O)c3ccno3)c2)cc(C(F)(F)F)c1 targetsystem="CSNK1G2 (human) (UniProt P78368)" result=100

Look up kinase still bound, per cent of control with CSNK1G2 (human) (UniProt P78368) for this compound: "O=C1Nc2ccc(I)cc2/C1=C/c1cc(Br)c(O)c(Br)c1"
100

Look up kinase still bound, per cent of control with CSNK1G2 (human) (UniProt P78368) for this compound: "Cc1ccc(C(=O)Nc2cccc(C(F)(F)F)c2)cc1Nc1cncc(C(N)=O)c1"
100

Look up kinase still bound, per cent of control with CSNK1G2 (human) (UniProt P78368) for this compound: "Cc1ccc2nc(NCCN)c3ncc(C)n3c2c1"
97

Look up kinase still bound, per cent of control with CSNK1G2 (human) (UniProt P78368) for this compound: "N#Cc1c(NC(=O)c2cccc3ccccc23)sc2c1CCCC2"
57

* * *

System: PIK3CA (human), P42336 [I800L]
Sequence (P42336 whole entry I800L, looked up): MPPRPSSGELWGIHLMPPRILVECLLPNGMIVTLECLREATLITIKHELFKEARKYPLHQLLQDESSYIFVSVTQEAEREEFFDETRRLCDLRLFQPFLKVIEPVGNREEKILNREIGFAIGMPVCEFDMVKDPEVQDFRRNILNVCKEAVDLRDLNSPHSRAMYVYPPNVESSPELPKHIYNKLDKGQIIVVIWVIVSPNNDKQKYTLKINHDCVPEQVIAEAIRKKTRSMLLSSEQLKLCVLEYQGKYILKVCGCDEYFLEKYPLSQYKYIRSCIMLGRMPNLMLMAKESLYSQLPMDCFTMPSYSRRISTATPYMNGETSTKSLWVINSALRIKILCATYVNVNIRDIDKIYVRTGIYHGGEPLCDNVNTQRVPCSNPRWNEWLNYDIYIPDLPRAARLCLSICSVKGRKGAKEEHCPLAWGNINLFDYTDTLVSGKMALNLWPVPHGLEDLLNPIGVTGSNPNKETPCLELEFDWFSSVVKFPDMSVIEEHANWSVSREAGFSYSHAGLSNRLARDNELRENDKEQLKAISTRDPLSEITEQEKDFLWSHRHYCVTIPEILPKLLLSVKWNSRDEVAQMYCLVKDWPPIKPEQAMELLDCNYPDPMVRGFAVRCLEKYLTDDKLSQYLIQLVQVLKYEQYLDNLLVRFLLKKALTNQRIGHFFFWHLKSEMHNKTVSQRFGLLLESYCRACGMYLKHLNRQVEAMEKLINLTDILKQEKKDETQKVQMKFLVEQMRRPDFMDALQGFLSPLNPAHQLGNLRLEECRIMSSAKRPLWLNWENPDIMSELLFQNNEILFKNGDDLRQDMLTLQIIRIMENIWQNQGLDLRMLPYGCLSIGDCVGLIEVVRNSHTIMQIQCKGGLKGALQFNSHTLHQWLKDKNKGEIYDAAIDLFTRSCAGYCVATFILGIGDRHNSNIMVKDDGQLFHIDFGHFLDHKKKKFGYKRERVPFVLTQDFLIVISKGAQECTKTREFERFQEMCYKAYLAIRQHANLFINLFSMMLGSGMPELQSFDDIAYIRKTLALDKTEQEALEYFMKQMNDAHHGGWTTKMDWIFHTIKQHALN
Test: KINOMEscan competition binding
Settings: compound 10.0 µM
recordedEndpoint: kinase still bound, per cent of control (%)
Please give a number only; it is taken to be in %.

// solved cases for kinase still bound, per cent of control follow
givensmiles=O=c1[nH]c2ccccc2n1C1CCN(Cc2ccc(-c3nc4cc5[nH]cnc5cc4nc3-c3ccccc3)cc2)CC1 targetsystem="PIK3CA (human), P42336 [I800L]" unitofmeasure=% result=51
givensmiles=N#C/C(=C1/Nc2ccccc2S1)c1ccnc(NCCc2cccnc2)n1 targetsystem="PIK3CA (human), P42336 [I800L]" unitofmeasure=% result=27
givensmiles=N#Cc1cc(-c2ccnc(Nc3ccc(-n4cnc(-c5cccnc5)n4)cc3)n2)cc(N2CCOCC2)c1 targetsystem="PIK3CA (human), P42336 [I800L]" unitofmeasure=% result=64
givensmiles=O=C1NC(=O)/C(=C/c2ccc3nccc(-c4ccncc4)c3c2)S1 targetsystem="PIK3CA (human), P42336 [I800L]" unitofmeasure=% result=12
givensmiles=C=CC(=O)Nc1cc(NC(=O)c2ccc(C)c(NC(=O)c3ccno3)c2)cc(C(F)(F)F)c1 targetsystem="PIK3CA (human), P42336 [I800L]" unitofmeasure=% result=93

Look up kinase still bound, per cent of control with PIK3CA (human), P42336 [I800L] for this compound: "CCN(CCO)CCCOc1ccc2c(Nc3cc(CC(=O)Nc4cccc(F)c4)[nH]n3)ncnc2c1"
100

Look up kinase still bound, per cent of control with PIK3CA (human), P42336 [I800L] for this compound: "O=C1Nc2ccc(I)cc2/C1=C/c1cc(Br)c(O)c(Br)c1"
61

Look up kinase still bound, per cent of control with PIK3CA (human), P42336 [I800L] for this compound: "CCCS(=O)(=O)Nc1ccc(F)c(C(=O)c2c[nH]c3ncc(Cl)cc23)c1F"
91

Look up kinase still bound, per cent of control with PIK3CA (human), P42336 [I800L] for this compound: "CCc1nc(-c2cccc(C)c2)c(-c2ccnc(NC(=O)c3ccccc3)c2)s1"
99
